Each entry below lists one item and its recorded protein stability index value.
B1: LOXL2 (parent)
chain: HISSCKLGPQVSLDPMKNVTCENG

# Variants of: B1
# assay_info: protein stability index of a GFP-peptide fusion (GPS, HEK-293T) (PSI 1-6); higher = more stable;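 also: lentivirally expressed fusions sorted by FACS into six bins by GFP to DsRed ratio, PSI derived from sequencing read proportions per bin multiplied by bin number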
# condition_details: c terminus: a fixed tail appended
Give a plain numeric answer without units written out.

Guide cases for protein stability index, answers given:
| variant_string | protein stability index |
| --- | --- |
| S4E | 4.37 |
| C21T | 4.08 |

stdin: Which protein stability index value belongs to "Q10N" ?
stdout: 3.92

stdin: Please give the result for "L13E" too.
stdout: 4.58

stdin: Same thing, different variant: "K17Y"
stdout: 3.44

stdin: Then this variant: "P9D"
stdout: 4.05

stdin: Param item: "Q10Y"
stdout: 3.07

stdin: And for "S4K" ?
stdout: 3.96

stdin: Please answer likewise for "K17P"
stdout: 4.01

stdin: Moving on to the next variant: "V19D"
stdout: 4.67

stdin: # repeat for "V11M"
stdout: 4.15

stdin: Also, "V19C" please.
stdout: 3.86

stdin: Please do the same for "S3V" as well.
stdout: 3.12

stdin: Next variant up: "L13T"
stdout: 4.61

stdin: And for "K6Q" ?
stdout: 4.04

stdin: Try "P9H" next.
stdout: 3.73

stdin: And the next one, "I2F" ?
stdout: 3.58

stdin: Would you mind doing "K6R" as well?
stdout: 3.94

stdin: // next record "P9N"
stdout: 3.71

stdin: Cool, now "G24T"
stdout: 4.05

stdin: Can you check "K6Y" next?
stdout: 3.44

The measurements presented in this section are drawn from the supplement of paper PMC10567573.
